System: Escherichia coli TOP10;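 also: peptides expressed intracellularly from a pBAD plasmid library in pooled LB shake-flask culture, induced with 0.3% L-arabinose, DNA abundance read by NGS, three biological replicates, DESeq2 with apeglm shrinkage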
Experiment: shrunken log2 fold change of peptide-encoding DNA abundance (4.5 h post-induction vs induction); higher = less antimicrobial activity (less host growth inhibition)
Condition: time post-induction: 4.5 h; library: site-saturation at positions 5, 18, 19, 20
Below, each of the sequences is paired with its reported shrunken log2 fold change value.

{"Biosequence": "RRIRDRPPRLPRPRPRPVQFPRP", "shrunken log2 fold change": -0.0196}
{"Biosequence": "RRIRQRPPRLPRPRPRPPQTPRP", "shrunken log2 fold change": 0.33}
{"Biosequence": "RRIRARPPRLPRPRPRPCDVPRP", "shrunken log2 fold change": 0.212}
{"Biosequence": "RRIRSRPPRLPRPRPRPYVMPRP", "shrunken log2 fold change": -0.653}
{"Biosequence": "RRIRHRPPRLPRPRPRPDIYPRP", "shrunken log2 fold change": 0.027}
{"Biosequence": "RRIRNRPPRLPRPRPRPREGPRP", "shrunken log2 fold change": 0.187}
{"Biosequence": "RRIRRRPPRLPRPRPRPANNPRP", "shrunken log2 fold change": -0.0615}
{"Biosequence": "RRIRKRPPRLPRPRPRPEGRPRP", "shrunken log2 fold change": 0.261}
{"Biosequence": "RRIRQRPPRLPRPRPRPETWPRP", "shrunken log2 fold change": 0.00978}
{"Biosequence": "RRIRCRPPRLPRPRPRPIVTPRP", "shrunken log2 fold change": 0.0598}
{"Biosequence": "RRIRSRPPRLPRPRPRPVQTPRP", "shrunken log2 fold change": 0.826}
{"Biosequence": "RRIRNRPPRLPRPRPRPANPPRP", "shrunken log2 fold change": 0.0813}
{"Biosequence": "RRIRLRPPRLPRPRPRPCIFPRP", "shrunken log2 fold change": -0.463}
{"Biosequence": "RRIRQRPPRLPRPRPRPAYQPRP", "shrunken log2 fold change": -0.00193}
{"Biosequence": "RRIRQRPPRLPRPRPRPTGNPRP", "shrunken log2 fold change": -0.0862}
{"Biosequence": "RRIRQRPPRLPRPRPRPVNPPRP", "shrunken log2 fold change": -0.085}
{"Biosequence": "RRIRYRPPRLPRPRPRPWCFPRP", "shrunken log2 fold change": -0.369}
{"Biosequence": "RRIRDRPPRLPRPRPRPMDSPRP", "shrunken log2 fold change": -0.0175}
{"Biosequence": "RRIRSRPPRLPRPRPRPFTHPRP", "shrunken log2 fold change": -0.0568}
{"Biosequence": "RRIRMRPPRLPRPRPRPNWMPRP", "shrunken log2 fold change": -0.0131}
{"Biosequence": "RRIRGRPPRLPRPRPRPETAPRP", "shrunken log2 fold change": 1.76}
{"Biosequence": "RRIRKRPPRLPRPRPRPDPTPRP", "shrunken log2 fold change": 0.273}
{"Biosequence": "RRIRDRPPRLPRPRPRPWTSPRP", "shrunken log2 fold change": 0.21}
{"Biosequence": "RRIRYRPPRLPRPRPRPHKRPRP", "shrunken log2 fold change": -0.163}
{"Biosequence": "RRIRRRPPRLPRPRPRPTQGPRP", "shrunken log2 fold change": 0.935}
{"Biosequence": "RRIRIRPPRLPRPRPRPHHHPRP", "shrunken log2 fold change": -0.719}
{"Biosequence": "RRIRCRPPRLPRPRPRPETCPRP", "shrunken log2 fold change": 0.0181}
{"Biosequence": "RRIRQRPPRLPRPRPRPIKTPRP", "shrunken log2 fold change": -0.0201}
{"Biosequence": "RRIRVRPPRLPRPRPRPASQPRP", "shrunken log2 fold change": 0.128}
{"Biosequence": "RRIRVRPPRLPRPRPRPNCMPRP", "shrunken log2 fold change": -0.222}
{"Biosequence": "RRIRQRPPRLPRPRPRPCPIPRP", "shrunken log2 fold change": 0.0347}
{"Biosequence": "RRIRSRPPRLPRPRPRPRPYPRP", "shrunken log2 fold change": -0.244}
{"Biosequence": "RRIRVRPPRLPRPRPRPHDRPRP", "shrunken log2 fold change": 0.068}
{"Biosequence": "RRIRARPPRLPRPRPRPGRDPRP", "shrunken log2 fold change": 0.671}
{"Biosequence": "RRIRLRPPRLPRPRPRPFCTPRP", "shrunken log2 fold change": -0.105}
{"Biosequence": "RRIRLRPPRLPRPRPRPFLYPRP", "shrunken log2 fold change": -0.656}
{"Biosequence": "RRIRSRPPRLPRPRPRPGIDPRP", "shrunken log2 fold change": -0.0173}
{"Biosequence": "RRIRGRPPRLPRPRPRPIIHPRP", "shrunken log2 fold change": -0.261}
{"Biosequence": "RRIRRRPPRLPRPRPRPNIDPRP", "shrunken log2 fold change": -0.0882}
{"Biosequence": "RRIRARPPRLPRPRPRPPMIPRP", "shrunken log2 fold change": -0.172}
{"Biosequence": "RRIRLRPPRLPRPRPRPFPSPRP", "shrunken log2 fold change": -0.173}
{"Biosequence": "RRIRYRPPRLPRPRPRPHFPPRP", "shrunken log2 fold change": -0.00195}
{"Biosequence": "RRIRPRPPRLPRPRPRPYDNPRP", "shrunken log2 fold change": -0.415}
{"Biosequence": "RRIRTRPPRLPRPRPRPDVDPRP", "shrunken log2 fold change": -0.0342}
{"Biosequence": "RRIRERPPRLPRPRPRPYCTPRP", "shrunken log2 fold change": -1.13}
{"Biosequence": "RRIRPRPPRLPRPRPRPSIRPRP", "shrunken log2 fold change": -0.306}
{"Biosequence": "RRIRMRPPRLPRPRPRPLHSPRP", "shrunken log2 fold change": 0.0835}
{"Biosequence": "RRIRKRPPRLPRPRPRPDHKPRP", "shrunken log2 fold change": -0.0248}
{"Biosequence": "RRIRSRPPRLPRPRPRPCFQPRP", "shrunken log2 fold change": -0.0966}
{"Biosequence": "RRIRSRPPRLPRPRPRPYHCPRP", "shrunken log2 fold change": -0.255}
{"Biosequence": "RRIRTRPPRLPRPRPRPWSWPRP", "shrunken log2 fold change": -0.0374}
{"Biosequence": "RRIRARPPRLPRPRPRPTCKPRP", "shrunken log2 fold change": 0.0463}
{"Biosequence": "RRIRERPPRLPRPRPRPVHSPRP", "shrunken log2 fold change": -0.0947}
{"Biosequence": "RRIRDRPPRLPRPRPRPQWPPRP", "shrunken log2 fold change": -0.0971}
{"Biosequence": "RRIRCRPPRLPRPRPRPPKLPRP", "shrunken log2 fold change": 0.0685}
{"Biosequence": "RRIRKRPPRLPRPRPRPPKEPRP", "shrunken log2 fold change": 0.944}
{"Biosequence": "RRIRPRPPRLPRPRPRPMYAPRP", "shrunken log2 fold change": -0.302}
{"Biosequence": "RRIRWRPPRLPRPRPRPFLCPRP", "shrunken log2 fold change": -0.139}
{"Biosequence": "RRIRGRPPRLPRPRPRPLYTPRP", "shrunken log2 fold change": 0.145}
{"Biosequence": "RRIRLRPPRLPRPRPRPYIGPRP", "shrunken log2 fold change": -0.129}
{"Biosequence": "RRIRHRPPRLPRPRPRPYPAPRP", "shrunken log2 fold change": -0.425}
{"Biosequence": "RRIRKRPPRLPRPRPRPEFDPRP", "shrunken log2 fold change": 2.46}
{"Biosequence": "RRIRLRPPRLPRPRPRPNWIPRP", "shrunken log2 fold change": -0.583}
